The measurements presented in this section are drawn from the OPERA property sets (Mansouri et al. 2018).

For each entry below, report its melting point value.
Please respond with the number in °C and leave the unit unwritten.

Input: I have this compound here, O=C1c2ccccc2-c2c(O)cccc21 , and I need its recorded melting point.
Output: 250

Input: // next record OC(CCN1CCCC1)(c1ccccc1)C1CCCCC1 (centres undefined)
Output: 86

Input: // same read-out, input: CCCCCC(C)(C)O
Output: -50.4

Input: Follow-up entry: CCOP(=S)(Oc1ccc(C#N)cc1)c1ccccc1 (centres undefined)
Output: 83

Input: Field entry: IC(I)(I)I
Output: 171

Input: Entry COc1ccccc1N1CCN(CCCC(=O)c2ccc(F)cc2)CC1 please
Output: 68

Input: Lookup C=CCN(CC=C)C(=O)COC(=O)c1ccccc1
Output: 42.5

Input: Then this compound: Oc1ccc(F)c(F)c1F
Output: 32

Input: Repeat for the following compound: CC(=O)c1ccc2ccccc2c1
Output: 56

Input: Another compound: C=COCCCl
Output: -70

Input: What do you have for Cc1cccc([N+](=O)[O-])c1O ?
Output: 70

Input: Continue with CC(COc1ccccc1)NC(C)C(O)c1ccc(O)cc1 (centres undefined)
Output: 103

Input: And then C[C@]12CC[C@@H](O)C[C@@H]1CC[C@@H]1[C@@H]2CC[C@]2(C)C=CC[C@@H]12 , what is it?
Output: 143

Input: Ok, now COc1ccccc1Oc1ccccc1OC
Output: 79.5

Input: What about this compound? CC[C@]1(O)CC[C@H]2[C@@H]3CCC4=CCCC[C@@H]4[C@H]3CC[C@@]21C
Output: 77

Input: Then FC(F)(F)C(F)(F)C(F)(F)F ?
Output: -148

Input: Proceed to Cc1ccc(O)c(C(C)(C)C)c1
Output: 51.5

Input: Proceed to Clc1ccc(Cl)c(Cl)c1Cl
Output: 47.5

Input: Next compound: CN1CCC(O)CC1
Output: 29

Input: Consider next the compound CCCCCCCCCCCCCCCCCC(C)=O in the same way.
Output: 57

Input: // repeat for Cc1cc(Cl)nn1C and report
Output: 47.5

Input: Likewise for O=[N+]([O-])CCO ?
Output: -80

Input: Same lookup for C/C(=N/NC(=O)c1ccncc1)c1ccco1 , please.
Output: 202

Input: Try O=c1ccoc2ccccc12 next.
Output: 59

Input: Follow-up item: CN(C)C(=S)SC(=S)N(C)C
Output: 110

Input: Item: CCC1(C)CC(=O)NC(=O)C1
Output: 126

Input: What would you report for C=C(C)C(CC)CC ?
Output: -113

Input: Cool, now CC=Cc1ccc(OC)cc1
Output: 21.3

Input: Entry CCCCCCCCSC#N please
Output: 105

Input: Follow-up entry: Nc1cccc2cc(O)ccc12
Output: 191

Input: Next up: C=C[Si](C)(C)O[Si](C)(C)C=C
Output: -99.7

Input: Then FCCl ?
Output: -133

Input: Same again, this time with C[C@]12CC[C@H]3[C@@H](CCC4=CC(=O)CC[C@@]43C)[C@@H]1CC[C@@H]2O
Output: 155

Input: Subsequent entry: O=C(O)c1ccc(Br)c([N+](=O)[O-])c1
Output: 204

Input: Again, but for Oc1ccc2ccccc2c1/N=N/c1ccccc1
Output: 134

Input: Also check CCC(O)CN (centres undefined)
Output: 3

Input: CCOP(=O)(OCC)ON1C(=O)c2cccc3cccc(c23)C1=O , same question.
Output: 177

Input: One more compound: CCCOC(=O)CCC(=O)OCCC
Output: -5.9

Input: Moving on to the next compound: Oc1cccc(Br)c1
Output: 33

Input: // query: CC[C@H]1CC[C@H](C)C1
Output: -108

Input: What about CCOC(=O)C=[N+]=[N-] ?
Output: -22

Input: Let us now turn to CC1CCCC(C)(C)C1 (centres undefined)
Output: -65.7

Input: Now the compound Cc1c2ccccc2cc2ccccc12
Output: 81.5

Input: Also need Oc1ccc(Sc2ccc(O)cc2)cc1 , thanks.
Output: 155

Input: How about CC(C)CC1CCCC1 ?
Output: -115

Input: And Oc1ccc(N=Nc2ccc(N=Nc3ccccc3)c3ccccc23)cc1 ?
Output: 210

Input: // repeat for CCc1ccc2c(c1)C(=O)c1ccccc1C2=O and report
Output: 110

Input: How about O=C(NC(Cc1ccccc1)c1ccccc1)c1cccnc1 (centres undefined) ?
Output: 159

Input: Then what about the compound C=Cc1ccccc1CC ?
Output: -75.5
